- TARGET DESC: UniProt:P23945
- Sequence (P23945 18-695): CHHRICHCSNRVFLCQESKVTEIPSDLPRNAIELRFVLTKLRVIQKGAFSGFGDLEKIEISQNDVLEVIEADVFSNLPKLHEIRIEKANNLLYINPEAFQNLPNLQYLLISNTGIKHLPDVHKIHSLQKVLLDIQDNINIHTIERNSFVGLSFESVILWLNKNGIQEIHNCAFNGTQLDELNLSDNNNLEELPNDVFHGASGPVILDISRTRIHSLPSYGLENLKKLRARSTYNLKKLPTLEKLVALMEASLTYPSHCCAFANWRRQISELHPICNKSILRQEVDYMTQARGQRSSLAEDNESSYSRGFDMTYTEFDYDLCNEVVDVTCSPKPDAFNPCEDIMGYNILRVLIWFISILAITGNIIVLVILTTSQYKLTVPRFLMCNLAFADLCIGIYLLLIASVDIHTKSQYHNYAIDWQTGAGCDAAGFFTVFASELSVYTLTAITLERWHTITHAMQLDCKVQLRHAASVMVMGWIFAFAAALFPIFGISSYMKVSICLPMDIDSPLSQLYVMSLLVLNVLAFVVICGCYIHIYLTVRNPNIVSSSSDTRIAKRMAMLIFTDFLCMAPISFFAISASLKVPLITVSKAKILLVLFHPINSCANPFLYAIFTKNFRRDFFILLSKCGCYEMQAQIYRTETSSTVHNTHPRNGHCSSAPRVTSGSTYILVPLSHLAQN
- TEST NAME: HTRF assay for measuring cAMP in cells, test for antagonism (in the presence of hFSH)
- RUN CONDITIONS: hFSHR clone 16 cells (CHO cells stably transfected with the human FSH receptor); in the presence of 1e-9 mol/l hFSH; 37° C. for 2 h; read-out: IC50 (FSH antagonistic effect in the HTRF assay)
READOUT KIND: IC50

Reference set (5 entries):
SMILES STRING	IC50
COc1ccc2nc(-c3cc(OC)c(OC)c(OC)c3)cc(C(=O)N[C@@H](CCO)Cc3ccc4ccccc4c3)c2c1	> 10000 nM
CNC(=O)c1ccc(-c2ccc(OC(C)C)c(C(=O)N[C@@H](CCO)Cc3c[nH]c4ccccc34)c2)cc1Cl	25 nM
COc1ccc2nc(-c3cc(OC)c(OC)c(OC)c3)cc(C(=O)N[C@H](CCO)Cc3c[nH]c4ccccc34)c2c1	> 10000 nM
COc1ccc2nc(-c3cc(OC)c(OC)c(OC)c3)cc(C(=O)N[C@@H](CCO)Cc3ccsc3)c2c1	> 10000 nM
CCOc1ccc(-c2cccc(OC)c2)cc1C(=O)N[C@@H](CCO)Cc1c[nH]c2ccccc12	300 nM

Task: GET /values?readout=IC50&item= COc1ccc2nc(-c3cc(OC)c(OC)c(OC)c3)cc(C(=O)N[C@H](CCO)Cc3ccccc3)c2c1
Result: > 10000 nM

Task: What value of IC50 has been reported for the following compound? COc1ccccc1C#Cc1ccc(OC(C)C)c(C(=O)N[C@@H](CCO)Cc2c[nH]c3ccccc23)c1
Result: 150 nM

Task: I have this compound here, COc1ccc2nc(-c3cc(OC)c(OC)c(OC)c3)cc(C(=O)N[C@@H](CCO)Cc3csc4ccccc34)c2c1 , and I need its recorded IC50.
Result: > 10000 nM
